# Tested on: Italian ryegrass
# test description: Test C postemergence
# Assay type: in vivo, Lolium multiflorum
# conditions used: 31 g ai/ha, postemergence; visual rating, scale 0 to 100 (0 no effect, 100 complete control), 13 to 15 days
The reader will find reported Ryegrass, Italian plant response rating values listed item by item below.
// no unit string in output, number only

Please indicate recorded Ryegrass, Italian plant response rating of Cc1cnc(Oc2cccc(C#N)c2-n2cc(C(F)(F)F)cn2)nc1 [Compound 180] measured with Italian ryegrass.
0

Please indicate recorded Ryegrass, Italian plant response rating of O=Cc1cccc(Oc2ncc(I)cn2)c1-n1cc(Br)cn1 [Compound 172] measured with Italian ryegrass.
0

Please indicate recorded Ryegrass, Italian plant response rating of Clc1cnc(Oc2cccc(Cl)c2-n2cc(I)cn2)nc1 [Compound 181] measured with Italian ryegrass.
0

Shift focus to the following entry.
Please indicate recorded Ryegrass, Italian plant response rating of N#Cc1cccc(Oc2ncc(Cl)cn2)c1-n1cc(OCC(F)(F)F)cn1 [Compound 274] measured with Italian ryegrass.
5
